Each entry below carries its reported IC50.
Molecular target: human orexin-1 receptor (Homo sapiens, UniProt O43613)
Construct: expressed in transfected cells; host or cells: Chinese hamster ovary (CHO) cells, G418 selection
Sequence (O43613 whole entry): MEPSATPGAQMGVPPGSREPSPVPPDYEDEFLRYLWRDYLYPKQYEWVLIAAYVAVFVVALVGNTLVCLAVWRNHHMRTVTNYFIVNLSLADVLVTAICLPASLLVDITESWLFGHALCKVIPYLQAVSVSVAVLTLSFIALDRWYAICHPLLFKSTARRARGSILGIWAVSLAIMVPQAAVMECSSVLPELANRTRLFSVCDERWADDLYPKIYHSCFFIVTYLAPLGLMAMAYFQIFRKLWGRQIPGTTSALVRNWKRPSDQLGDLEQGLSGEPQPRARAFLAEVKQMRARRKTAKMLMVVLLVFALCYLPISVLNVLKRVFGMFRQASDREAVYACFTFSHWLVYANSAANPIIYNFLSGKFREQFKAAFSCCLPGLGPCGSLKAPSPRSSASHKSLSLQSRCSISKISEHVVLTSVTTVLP
Assay: Intracellular calcium measurements (FLIPR), orexin receptor antagonistic activity
Type: cell-based
Details: FLIPR2; CHO cells expressing human orexin-1 receptor; 3 nM orexin-A; read-out: OX1 IC50
// return numeric value only (unit: nM, not printed)

Completed entries (count: 3):
> print(dat)
                                item.smiles  assay.readout  observed.measurement
1  Cc1ncc(C(=O)N2C[C@@H]3C[C@@H]3[C@H]2CNC(=O)c2c(C)nc3sccn23)c(-c2ccccc2)n1           IC50                    35
2  Cc1nc2sccn2c1C(=O)NC[C@@H]1[C@H]2C[C@H]2CN1C(=O)c1ccccc1-c1csc(N)n1           IC50                   102
3  Cc1cccc(-c2sc(C)nc2C(=O)N2C[C@@H]3C[C@@H]3[C@H]2CNC(=O)c2cccc3ccccc23)c1           IC50                   155

Now for a further compound.
So what does the record say about IC50 for Cc1cccc(-c2sc(C)nc2C(=O)N2C[C@@H]3C[C@@H]3[C@H]2CNC(=O)c2nccc3ccccc23)c1 ?
26

----------
Target: human orexin-2 receptor (Homo sapiens, UniProt O43614)
Construct: expressed in transfected cells; host or cells: Chinese hamster ovary (CHO) cells, G418 selection
Sequence (O43614 whole entry): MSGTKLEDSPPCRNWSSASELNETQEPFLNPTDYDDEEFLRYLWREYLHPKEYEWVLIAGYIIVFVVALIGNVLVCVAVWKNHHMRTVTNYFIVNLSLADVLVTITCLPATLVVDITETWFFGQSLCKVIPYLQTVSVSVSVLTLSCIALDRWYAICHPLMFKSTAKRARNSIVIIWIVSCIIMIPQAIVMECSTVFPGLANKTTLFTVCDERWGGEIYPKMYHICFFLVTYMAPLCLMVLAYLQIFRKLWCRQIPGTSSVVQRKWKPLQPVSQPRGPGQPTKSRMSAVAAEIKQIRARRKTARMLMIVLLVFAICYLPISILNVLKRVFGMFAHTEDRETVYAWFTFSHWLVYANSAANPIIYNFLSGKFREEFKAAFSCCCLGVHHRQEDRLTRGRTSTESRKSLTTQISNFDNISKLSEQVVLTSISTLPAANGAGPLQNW
Experiment: Intracellular calcium measurements (FLIPR), orexin receptor antagonistic activity
Assay type: cell-based
Details: FLIPR Tetra, non-optimized conditions; CHO cells expressing human orexin-2 receptor; 3 nM orexin-A; read-out: OX2 IC50
Each entry below carries its reported IC50.
// return numeric value only (unit: nM, not printed)

Completed entries (count: 4):
> print(dat)
                                item.smiles  observed.measurement
1  Cc1cccc(-c2sc(C)nc2C(=O)N2C[C@@H]3C[C@@H]3[C@H]2CNc2ncc(Br)cn2)c1                   639
2  Cc1nc(C(=O)N2C[C@@H]3C[C@@H]3[C@H]2CNC(=O)c2cccc3c2CCO3)c(-c2cccc(C(F)(F)F)c2)s1                   349
3  CN(C)c1nc(C(=O)N2C[C@@H]3C[C@@H]3[C@H]2CNC(=O)c2scc3c2OCCO3)c(-c2cccc(F)c2)s1                    48
4  Cc1nc(C(=O)N2C[C@@H]3C[C@@H]3[C@H]2CNc2ncc(Br)cn2)c(-c2ccc(C)c(F)c2)s1                   350

So what does the record say about IC50 for N#Cc1ccc(-c2sc(C3CC3)nc2C(=O)N2C[C@@H]3C[C@@H]3[C@H]2CNC(=O)c2cccc(Cl)c2)cc1 ?
296

----------
Target: human orexin-1 receptor (Homo sapiens)
Construct: expressed in transfected cells; host or cells: Chinese hamster ovary (CHO) cells, G418 selection
Experiment: Intracellular calcium measurements (FLIPR), orexin receptor antagonistic activity
Type: cell-based
Conditions: FLIPR Tetra, non-optimized conditions; CHO cells expressing human orexin-1 receptor; 3 nM orexin-A; read-out: OX1 IC50
ASSAY_READOUT: pIC50
Here pIC50 is given on a logarithmic scale as minus log10 of the concentration in mol/L.

> print(dat)
                                item.smiles                       target.under.test  observed.measurement
1  CN(C)c1nc(C(=O)N2C[C@@H]3C[C@@H]3[C@H]2CNC(=O)c2scc3c2OCCO3)c(-c2cccc(F)c2)s1  human orexin-1 receptor (Homo sapiens)                  6.94
2  Cc1nc(C(=O)N2C[C@@H]3C[C@@H]3[C@H]2CNC(=O)c2cccc3c2CCO3)c(-c2cccc(C(F)(F)F)c2)s1  human orexin-1 receptor (Homo sapiens)                  6.17
3  Cc1cccc(-c2sc(C)nc2C(=O)N2C[C@@H]3C[C@@H]3[C@H]2CNc2ncc(Br)cn2)c1  human orexin-1 receptor (Homo sapiens)                  7.29

So what does the record say about pIC50 for Cc1nc(C(=O)N2C[C@@H]3C[C@@H]3[C@H]2CNc2ncc(Br)cn2)c(-c2ccc(C)c(F)c2)s1 ?
7.10

So what does the record say about pIC50 for N#Cc1ccc(-c2sc(C3CC3)nc2C(=O)N2C[C@@H]3C[C@@H]3[C@H]2CNC(=O)c2cccc(Cl)c2)cc1 ?
5.49
